# reported growth AUC; entries follow
test system: Lactobacillus paracasei; experiment: growth AUC relative to DMSO control (median of replicates) (fraction); higher = more growth (less inhibition), active = hit call of the paper; conditions: 20 µM; 24 h
Respond using a number only.

Recorded growth AUC, per entry:
>>> val("O=c1oc2ccccc2c(O)c1C1CC(c2ccc(-c3ccccc3)cc2)Cc2ccccc21 (centres undefined)")
0.887
>>> val("Nc1cnn(-c2ccccc2)c(=O)c1Cl")
1.07
>>> val("COc1cc(OC)nc(NC(=O)NS(=O)(=O)c2cc(NC=O)ccc2C(=O)N(C)C)n1")
1.05

INPUT: Please look up its growth AUC: CSc1nc(N=[N+]=[N-])nc(NC(C)C)n1
OUTPUT: 0.938

INPUT: Please look up its growth AUC: N#Cc1c(O)c(Cl)c(Cl)c(C#N)c1Cl
OUTPUT: 0.986

INPUT: Please look up its growth AUC: CC(C)N(C(=O)COc1nnc(C(F)(F)F)s1)c1ccc(F)cc1
OUTPUT: 1.02

INPUT: Please look up its growth AUC: COc1nn(CSP(=S)(OC)OC)c(=O)s1
OUTPUT: 1.01
